Test system: human SMAD7 mRNA
Test: Dose-dependent inhibition of human SMAD7 mRNA expression in Hep3B cells (Example 3, Study 1 and 2)
Assay type: cell-based
Conditions: 1250.0 nM, electroporation, approximately 16 hours, Study 1
Strand notation (5' to 3'): a small letter for the sugar, then the base; units joined by * are phosphorothioate-linked, units joined directly phosphodiester-linked; [ ] holds rarer units or linkages, { } end groups; capitals alone tell only the bases. e = 2'-O-(2-methoxyethyl) (MOE); [5mC] = 5-methylcytosine; d = 2'-deoxy (DNA)
Metric name: % inhibition of SMAD7 mRNA expression (%)
Value expressed in %; do not type the unit.

771793 (antisense eA*eA*eG*eT*e[5mC]*d[5mC]*d[5mC]*dT*dA*dA*d[5mC]*dG*dA*d[5mC]*d[5mC]*eA*eG*eG*e[5mC]*e[5mC]) [compound 771793]
33
771397 (antisense eG*eA*eG*e[5mC]*eG*dG*d[5mC]*dG*dG*d[5mC]*dG*dG*d[5mC]*d[5mC]*d[5mC]*eG*eA*eG*eG*eG) [compound 771397]
0
771717 (antisense eT*e[5mC]*e[5mC]*e[5mC]*eA*dT*d[5mC]*dT*dA*dT*d[5mC]*dG*dA*dA*dT*e[5mC]*eA*e[5mC]*e[5mC]*e[5mC]) [compound 771717]
0
771794 (antisense eG*eA*eA*eG*e[5mC]*dA*dA*dG*dT*d[5mC]*dA*d[5mC]*dT*dG*d[5mC]*e[5mC]*eT*eT*e[5mC]*eT) [compound 771794]
0
771386 (antisense e[5mC]*eT*eG*eG*eA*d[5mC]*dA*dG*dT*d[5mC]*dT*dG*d[5mC]*dT*dG*eT*eG*eG*eA*eT) [compound 771386]
3

Lookup result for 771632 (antisense eA*eA*eT*e[5mC]*e[5mC]*dT*dT*d[5mC]*dT*dT*dG*dG*dA*dG*dG*eG*eA*eA*eG*eG) [compound 771632] ; measured % inhibition of SMAD7 mRNA expression: 6

% inhibition of SMAD7 mRNA expression measured on 771734 (antisense e[5mC]*eT*e[5mC]*eA*eA*dA*d[5mC]*d[5mC]*dT*dT*dT*d[5mC]*dA*dG*dA*e[5mC]*e[5mC]*eA*eT*e[5mC]) [compound 771734] = 0

Briefly, % inhibition of SMAD7 mRNA expression measured for 771661 (antisense eA*eA*eT*eG*e[5mC]*dT*dT*d[5mC]*dT*d[5mC]*dT*dT*dG*dT*dT*e[5mC]*eA*eT*eT*eT) [compound 771661] : 0
